Recorded pIC50 for the following compounds
Target: mTOR (Homo sapiens)
Construct: phosphorylation of the Akt protein at Ser473 (AKT lies downstream of PI3Kα in the signal transduction pathway) in the MDA-MB-468 cells; endogenous in cells; host or cells: MDA-MB-468 cells (ATCC HTB 132)
Assay: Assay d): mTOR cellular potency (phospho-AKT Ser473 in MDA-MB-468 cells)
Assay type: cell-based
Conditions: MDA-MB-468 cells, phospho-AKT Ser473, 2 h; Table 3 comparative data; read-out: Assay d) mTOR Cell IC50
Method: This assay was used to measure mTOR inhibition in cells. The aim of the phospho-AKT cell based mechanism of action assay using the Acumen Explorer is to identify inhibitors of either PI3Kα or mTOR-Rictor (Rapamycin insensitive companion of mTOR). This is measured by any decrease in the phosphorylation of the Akt protein at Ser473 (AKT lies downstream of PI3Kα in the signal transduction pathway) in the MDA-MB-468 cells following treatment with compound. […]
The value called pIC50 is obtained by taking minus log10 of the concentration in mol/L.

Solved entries:
{"Compound": "Cn1c(=O)n(C2CCOCC2)c2c3cc(-c4cnn(CCCO)c4)ccc3ncc21 [CN102399218A Compound 60, reference compound]", "Recorded measurement": 5.64}
{"Compound": "COc1ccc(-c2ccc3ncc4c(c3c2)n(C2CCN(C(C)=O)CC2)c(=O)n4C)cn1 [CN102372711A Compound 5, reference compound]", "Recorded measurement": 6.95}

Attention now turns to another entry.
Q: Which pIC50 is reported for this compound? Cn1c(=O)n(C2CC2)c2c3cc(-c4cnc(N)nc4)ccc3ncc21 [CN102399218A Compound 64, reference compound]
Result: 6.54
